Test Method Notes: Inhibition of L-type calcium channel subunits alpha1C, beta1b, and alpha2-delta subunits expressed in Human embryonic kidney tsa-201 cells
Format: cell-based
Class field: derived from IC50; ranges low group: < 1000 nM; middle group: ≥ 1000 nM and < 3000 nM; high group: ≥ 3000 nM

CCOC(=O)C1=C(C)N=C(C)/C(=C(/O)OCC)C1c1c(C)noc1CCc1ccccc1 (centres undefined) = middle group
COC(=O)C1=C(C)N=C(C)/C(=C(/O)OC)C1c1c(-c2ccc(F)cc2)noc1C (centres undefined) = middle group
CCOC(=O)C1=C(C)N=C(C)/C(=C(/O)OCC)C1c1c(C)noc1CCc1cccc2ccccc12 (centres undefined) = low group
COC(=O)C1=C(C)N=C(C)/C(=C(/O)OC)C1c1c(-c2ccc(Br)cc2)noc1C (centres undefined) = low group

Request: // bin(item) where item = CCOC(=O)C1=C(C)N=C(C)/C(=C(/O)OCC)C1c1c(C)noc1C (centres undefined)
Response: high group

Request: // bin(item) where item = CCOC(=O)C1=C(C)N=C(C)/C(=C(/O)OCC)C1c1c(C)noc1CCc1ccc2ccccc2c1 (centres undefined)
Response: middle group

Request: // bin(item) where item = CCOC(=O)C1=C(C)N=C(C)/C(=C(/O)OCC)C1c1c(C)noc1CCc1cccc(OC)c1 (centres undefined)
Response: middle group

Request: // bin(item) where item = CCOC(=O)C1=C(C)N=C(C)/C(=C(/O)OCC)C1c1c(-c2ccccc2Cl)noc1C (centres undefined)
Response: high group

Request: // bin(item) where item = CCOC(=O)C1=C(C)N=C(C)/C(=C(/O)OCC)C1c1c(-c2cccc(Cl)c2)noc1C (centres undefined)
Response: middle group

* * *

Test Method Notes: Maximum inhibition of L-type calcium channel expressed in HEK tsa-201 cells from Patch Clamp analysis
Type: functional, HEK293
Measured Max inhibition, listed per entry for reference.
Output: the number by itself.

CCOC(=O)C1=C(C)N=C(C)/C(=C(/O)OCC)C1c1c(-c2ccc(Cl)cc2)noc1C (stereo not given) = 100

Request: Param item = CCOC(=O)C1=C(C)N=C(C)/C(=C(/O)OCC)C1c1c(C)noc1CCc1cccc(OC)c1 (stereo not given) ; retrieve measured Max inhibition.
Response: 100

Request: Param item = COC(=O)C1=C(C)N=C(C)/C(=C(/O)OC)C1c1c(-c2ccc(F)cc2)noc1C (stereo not given) ; retrieve measured Max inhibition.
Response: 93

Request: Param item = CCOC(=O)C1=C(C)N=C(C)/C(=C(/O)OCC)C1c1c(C)noc1C (stereo not given) ; retrieve measured Max inhibition.
Response: 100

Request: Param item = CCOC(=O)C1=C(C)N=C(C)/C(=C(/O)OCC)C1c1c(C)noc1CCc1cccc2ccccc12 (stereo not given) ; retrieve measured Max inhibition.
Response: 76
